- MEASUREMENT PROTOCOL: basal 3T3-L1 adipocyte mitochondrial potential changes, profiling panel, cell-based, JC-1 fluorescence, 3T3-L1 adipocytes, 24 h, 100 nL compound (AID 1168); also: test concentration not given here
- ASSAY CONDITIONS: JC-1 mitochondrial fluorescence, higher = more signal, called active from +8 up or from −8 down
Examples of molecules with documented z-score follow.
Lab note: jot down the number only; don't add units.

Previously resolved entries follow.
// query Query (molecule): Cc1ccc(S[C@]2(C(=O)NCC(C)C)CC(=O)N(Cc3cc(C(F)(F)F)cc(C(F)(F)F)c3)[C@@H]2c2ccc(CO)cc2I)cc1 ; field requested: z-score
// result -0.3

// query Query (molecule): CCc1oc(CC[C@@H](CO)NC(=O)NCCn2cc(C3(O)CCCCC3)nn2)c(C(=O)OC)c1C(=O)OC ; field requested: z-score
// result -0.0732

// query Query (molecule): COCCCNC(=O)[C@@]1(Cc2ccccc2)N=C(c2ccc(OCCCO)cc2)O[C@H]1c1ccccc1 ; field requested: z-score
// result 0.425

// query Query (molecule): C=CCNC(=O)[C@H]1[C@@H]2C(=O)O[C@@H](c3ccccc3)[C@@H](c3ccccc3)N2[C@@H](c2ccccc2OCCO)[C@]12C(=O)Nc1ccc(C#CC3=CCCCC3)cc12 ; field requested: z-score
// result 2.75

// query Query (molecule): [N-]=[N+]=NCc1ccccc1[C@@H]1OC(c2ccc(OCCCO)cc2)=N[C@]1(CCS(=O)(=O)c1ccccc1)C(=O)NCc1ccccc1 ; field requested: z-score
// result 0.0135

// query Query (molecule): COCCn1c(C(=O)N2CCCC2)cc2c1C[C@H]1CN(C(=O)c3ccccc3)[C@@](Cc3ccc(F)cc3)(C(=O)OC)[C@@H]21 ; field requested: z-score
// result -0.757

More entries:
// query Query (molecule): CC1CC/C=C\[C@H]2OC34C=CCN(C(C)(C)C)C(=O)[C@H]3N(CCCCCCO)C(=O)[C@@H]4C2C(=O)O1 (some centres not stated) ; field requested: z-score
// result 1.11

---

- MEASUREMENT PROTOCOL: small-molecule binders of probe aNOTCH3, primary screen, biochemical, small-molecule microarray, 635/667 nm fluorescence (AID 1120);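 also: probe is a biotin-tagged antibody raised against NOTCH3 rather than NOTCH3 protein; score merges spot fluorescence near 667 nm with spot signal to noise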
- ASSAY CONDITIONS: higher = more signal
Examples of compounds with documented composite z-score follow.

// query Query (compound): C=CCN(Cc1ccccc1)C(=O)C(c1cccs1)N(CCOCCO)C(=O)/C=C\C(=O)O (configuration not stated) ; field requested: composite z-score
// result -0.553

// query Query (compound): CCCCN1CC=CC23O[C@@H]4C=CCOC(=O)[C@@H]4[C@H]2C(=O)N(CCCCCO)[C@@H]3C1=O (some centres not stated) ; field requested: composite z-score
// result -0.199

// query Query (compound): COCCOC(=O)N1C(=O)[C@@]2(c3cc(C#CCCO)ccc31)[C@H](C(=O)N1CCN(c3ncccn3)CC1)[C@H]1C(=O)O[C@H](c3ccccc3)[C@H](c3ccccc3)N1[C@@H]2c1ccccc1OCCO ; field requested: composite z-score
// result 0.195

// query Query (compound): CC(C)(C)OC(=O)CC[C@]12N=C(c3ccc(OCCCO)cc3)O[C@H]1c1ccccc1N(CCS(=O)(=O)c1ccccc1)C2=O ; field requested: composite z-score
// result 0.21

// query Query (compound): COC(=O)[C@@]1(Cc2ccc(F)cc2)[C@H]2c3cc(C(=O)N(C)C)n(Cc4nc5ccccc5[nH]4)c3C[C@H]2CN1C(=O)c1ccccc1 ; field requested: composite z-score
// result 0.392

// query Query (compound): CC(C)(C)OC(=O)CC[C@@]1(C(N)=O)N=C(c2ccc(OCCCO)cc2)O[C@@H]1c1ccccc1 ; field requested: composite z-score
// result 0.3

More entries:
// query Query (compound): C=C(/C(=C/C[C@@H](OC(C)=O)c1ccc(OCCO)cc1)c1cnc2ccccc2c1)C(C)C ; field requested: composite z-score
// result -0.0362
